Experiment: Area under plasma concentration time curve in dog upon oral administration
Classes by AUC: L (below 1000 ng·h/mL), M (1000 ng·h/mL to below 4000 ng·h/mL), H (4000 ng·h/mL or more)

Consider the worked cases shown below.
{"columns": ["compound", "classification"],
 "data": [
  ["Cn1cncc1C(OCc1ccc(C#N)cc1-c1ccc(OC(F)(F)F)cc1)c1ccc(C#N)cc1 (stereo unspecified)", "M"],
  ["Cn1cncc1C(OCc1ccc(C#N)cc1-c1ccc2c(c1)OCO2)c1ccc(C#N)cc1 (stereo unspecified)", "M"]
]}

Task item: Hi there! Could you help me figure out the category for Cn1cncc1C(OCc1ccc(C#N)cc1-c1cccc(Cl)c1)c1ccc(C#N)c(F)c1 (stereo unspecified) please?
Reply: M

Task item: Hi there! Could you help me figure out the category for Cc1ncc(C(OCc2ccc(C#N)cc2-c2ccc3c(c2)OCO3)c2ccc(C#N)cc2)n1C (stereo unspecified) please?
Reply: L

Task item: Hi there! Could you help me figure out the category for COc1ccc(-c2cc(C#N)ccc2COC(c2ccc(C#N)cc2)c2cncn2C)cc1 (stereo unspecified) please?
Reply: L

Task item: Hi there! Could you help me figure out the category for Cn1cncc1C(OCc1ccc(C#N)cc1-c1ccc2c(c1)OC(F)(F)O2)c1ccc(C#N)cc1 (stereo unspecified) please?
Reply: M

Task item: Hi there! Could you help me figure out the category for Cn1cncc1C(OCc1ccc(C#N)cc1C(=O)Nc1ccccc1)c1ccc(C#N)cc1 (stereo unspecified) please?
Reply: H

Task item: Hi there! Could you help me figure out the category for COCc1cccc(-c2cc(C#N)ccc2COC(c2ccc(C#N)cc2)c2cncn2C)c1 (stereo unspecified) please?
Reply: L

Task item: Hi there! Could you help me figure out the category for Cn1cncc1C(OCc1ccc(C#N)cc1-c1cccc(Cl)c1)c1ccc(C#N)cc1 (stereo unspecified) please?
Reply: H

Task item: Hi there! Could you help me figure out the category for CCOc1cccc(-c2cc(C#N)ccc2COC(c2ccc(C#N)cc2)c2cncn2C)c1 (stereo unspecified) please?
Reply: M

Task item: Hi there! Could you help me figure out the category for Cn1cncc1C(OCc1ccc(Cl)cc1-c1ccccc1Cl)c1ccc(C#N)cc1 (stereo unspecified) please?
Reply: H
